# System: P388 leukemia ip, CD2F1 mice, survival T/C
# Assay Procedure: NCI In Vivo Anticancer Drug Screen. Data for tumor model P388 Leukemia (intraperitoneal) in CD2F1 (CDF1) mice
# Run Conditions: endpoint: median survival time; dose: 100.0 mg/kg/injection; schedule: Q01DX009 (ip); vehicle: water; higher = longer survival
Inconclusive results and toxic doses are left out.
Value Kind: T/C

Compound	Value Kind	Val
O=NCC(=O)OCc1ccccc1	T/C	99 % of control
CNC(=O)ON(C(C)=O)C(=O)NC	T/C	121 % of control
COc1cccc(C(=O)c2ccncc2C)c1OC	T/C	97 % of control

Value wanted: T/C (P388 leukemia ip, CD2F1 mice, survival T/C) of entry "CC(=O)OCCSCCO"
99 % of control

CNC(=O)CC(C(=O)O)N(C)C (configuration not stated) ?
106 % of control

Proceed to COC(=O)C1C(C)(C)N=[N+]([O-])C1(C)C (configuration not stated)
97 % of control

Okay, and "CC(=O)OCc1cc[n+](C)cc1" ?
102 % of control

----------
# Test system: P388 leukemia ip, CD2F1 mice, survival T/C
# Assay Procedure: NCI In Vivo Anticancer Drug Screen. Data for tumor model P388 Leukemia (intraperitoneal) in CD2F1 (CDF1) mice
# Run Conditions: endpoint: median survival time; dose: 100.0 mg/kg/injection; schedule: Q01DX009 (ip); vehicle: saline with Tween-80
Inconclusive results and toxic doses are left out. The calls were made as follows: active = survival T/C of 150% or more; inactive = T/C below 125% in these data.
Return exactly one item of true (1) = active, false (0) = inactive

Some solved entries appear below for comparison.
Molecule	Discrete Label
CN(NC(=O)C(=O)NCc1ccco1)C(=O)Nc1ccc(Cl)cc1	false (0)
CCCCOP(=O)(Nc1ccccc1)OCCCC	false (0)
CC1=NN(C(=O)c2ccncc2)C(=O)C1N=Nc1ccc(S(=O)(=O)Nc2ccccn2)cc1 (stereo unspecified)	false (0)

Check the results log: what was the call for "CCCN(CCC)C(=O)O[Si](C)(C)C(C)(C)C" ?
false (0)

Same for "COc1cc(OC)c(/C=C\c2ccnc3ccccc23)c(OC)c1"
false (0)

Please give the result for "Cc1ccc(NC(=O)Oc2ccc(Br)cc2Br)c([N+](=O)[O-])c1" too.
false (0)

Another: "COc1cc2c(cc1O)C(=O)CCC(C(=O)O)=C2"
false (0)

Note, next up: NC(CCCCNC1CCCCC1)C(=O)O (stereo unspecified)
false (0)

----------
# Test system: P388 leukemia ip, CD2F1 mice, survival T/C
# Assay Procedure: NCI In Vivo Anticancer Drug Screen. Data for tumor model P388 Leukemia (intraperitoneal) in CD2F1 (CDF1) mice
# Run Conditions: endpoint: median survival time; dose: 200.0 mg/kg/injection; schedule: Q01DX009 (ip); vehicle: other
Inconclusive results and toxic doses are left out. How the source made its calls: active means survival T/C of 150% or more; inactive means T/C below 125% in these data.
Your reply should match one of these outcome classes. active, inactive

Example cases with answers are listed next.
Compound	Target System	Discrete Label
COc1cc2c(c3c1C(=O)c1c(cc4c(c1O)C(OC)CC(C)(O)C4)C3=O)OC1OC2(C)C(O)C(N(C)C)C1O (centres undefined)	P388 leukemia ip, CD2F1 mice, survival T/C	active
NCCc1c[nH]c2ccc(O)cc12 (tested in a mixture with another compound)	P388 leukemia ip, CD2F1 mice, survival T/C	inactive
O=CN(c1ccccc1)c1ccccc1	P388 leukemia ip, CD2F1 mice, survival T/C	inactive

Outcome? CC1(OC(=O)c2ccc(F)cc2)CC(C)(C)[N+]([O-])=N1 (centres undefined)
inactive

----------
This section presents compounds with their documented T/C values.
# Test system: P388 leukemia ip, CD2F1 mice, survival T/C
# Assay Procedure: NCI In Vivo Anticancer Drug Screen. Data for tumor model P388 Leukemia (intraperitoneal) in CD2F1 (CDF1) mice
# Run Conditions: endpoint: median survival time; dose: 100.0 mg/kg/injection; schedule: Q01DX009 (ip); vehicle: saline; higher = longer survival
Inconclusive results and toxic doses are left out.

Some compounds with recorded T/C:
Compound	Value Kind	Val
CCC[CH2][GeH][CH2]CCC.CCC[CH2][Ge]([CH2]CCC)[CH2]CCC	T/C	88 % of control
CNC(=S)N/N=C/c1ccccn1	T/C	101 % of control
Cc1onc(-c2ccccc2)c1C(=O)c1ccccc1	T/C	100 % of control
CCOC(=O)NCP(Cl)(CNC(=O)OCC)(CNC(=O)OCC)CNC(=O)OCC	T/C	86 % of control
Oc1ccc2c(c1)[C@]13CCCCC1[C@H](C2)N(Cc1ccoc1)CC3 (some centres not stated)	T/C	99 % of control
COc1ccc(C(=O)CCN(C)C)cc1	T/C	104 % of control
C=C(C)c1ccc([Si](C)(C)C)cc1	T/C	101 % of control
CCCCCCCCCCCCCCCCS(=O)(=O)c1ccc(S(=O)(=O)N/N=c2/sc3ccccc3n2C)cc1C(=O)O	T/C	88 % of control

Requested field: T/C. Item: CCCC(N)P(=O)(O)O (configuration not stated)
93 % of control

Item: "O=C1c2ccccc2C(=O)N1O"
100 % of control

Also "CCOC(=O)CN=C(c1ccccc1)c1ccccc1" ?
89 % of control

What about "O=C(O)CSCCCCCCSCC(=O)O" ?
103 % of control

----------
# Test system: P388 leukemia ip, CD2F1 mice, survival T/C
# Assay Procedure: NCI In Vivo Anticancer Drug Screen. Data for tumor model P388 Leukemia (intraperitoneal) in CD2F1 (CDF1) mice
# Run Conditions: endpoint: median survival time; dose: 100.0 mg/kg/injection; schedule: Q01DX001 (ip); vehicle: saline; higher = longer survival
Toxic doses and inconclusive results are not listed.
Value Kind: T/C

Molecule	Val
CNC(=S)N/N=C/CCCC/C=N/NC(=S)NC	96 % of control
C[C@@]1(O)CC[C@@]23OC(=O)CC2C[C@@H]1O3 (stereo not given in full)	102 % of control
COCC1(C)CCCC2(C)C3=C(CCC(OC)C3)CCC12 (stereo not given)	99 % of control

Next, consider the following molecule.
Please look up its T/C: "C[N+](C)(C)CCC[n+]1ccc(CCn2ccc3ccccc32)cc1"
102 % of control

----------
# T/C listing for each entry below
# Test system: P388 leukemia ip, CD2F1 mice, survival T/C
# Assay Procedure: NCI In Vivo Anticancer Drug Screen. Data for tumor model P388 Leukemia (intraperitoneal) in CD2F1 (CDF1) mice
# Run Conditions: endpoint: median survival time; dose: 400.0 mg/kg/injection; schedule: Q04DX002 (ip); vehicle: Klucel (hydroxypropylcellulose) (HPC); higher = longer survival
Toxic doses and inconclusive results are not listed.

Molecule	Target System	T/C
CC(C)C(Br)C(N)=O (stereo not drawn)	P388 leukemia ip, CD2F1 mice, survival T/C	105 % of control

Entry "CCN=c1c([N+](=O)[O-])c(NC(=O)c2ccccc2)sn1CC" has what T/C?
107 % of control

----------
Reported values of T/C for individual entries
# System: P388 leukemia ip, CD2F1 mice, survival T/C
# Assay Procedure: NCI In Vivo Anticancer Drug Screen. Data for tumor model P388 Leukemia (intraperitoneal) in CD2F1 (CDF1) mice
# Run Conditions: endpoint: median survival time; dose: 3.12 mg/kg/injection; schedule: Q01DX009 (ip); vehicle: saline; higher = longer survival
Inconclusive results and toxic doses are left out.

Worked examples follow.
Compound	T/C
O/N=C/C(Cl)(Cl)Cl	105 % of control
O=C(O)CC1C(=O)OC2C3COC(=O)c4cc(O)c(O)c(O)c4-c4c(cc(O)c(O)c4O)C(=O)OC2C(OC(=O)c2cc(O)c(O)c4c2C1C(O)C(=O)O4)C(OC(=O)c1cc(O)c(O)c(O)c1)O3 (stereo not given)	98 % of control
C[N+]1(CSC(=O)c2ccccc2)CCCCC1	110 % of control

# query: T/C of entry "Clc1ccc(SSN2CCOCC2)cc1"
100 % of control

Please give the result for "C=COS(=O)O" too.
104 % of control

----------
# Tested on: P388 leukemia ip, CD2F1 mice, survival T/C
# Assay Procedure: NCI In Vivo Anticancer Drug Screen. Data for tumor model P388 Leukemia (intraperitoneal) in CD2F1 (CDF1) mice
# Run Conditions: endpoint: median survival time; dose: 100.0 mg/kg/injection; schedule: Q04DX003 (ip); vehicle: saline; higher = longer survival
Inconclusive results and toxic doses are left out.
Value Kind: T/C

Example cases with answers are listed next.
Molecular String	Target System	T/C
CCN(CC)CCCNC(C)=O	P388 leukemia ip, CD2F1 mice, survival T/C	100 % of control
COP(=S)(OC)Oc1cc(Cl)c(Cl)cc1Cl	P388 leukemia ip, CD2F1 mice, survival T/C	102 % of control
CCCC(CCC)=NCCN=C(CCC)CCC	P388 leukemia ip, CD2F1 mice, survival T/C	95 % of control
Cc1cc[n+](CCC(N)=O)cc1	P388 leukemia ip, CD2F1 mice, survival T/C	100 % of control
CC1=NN(C)C(=O)C1	P388 leukemia ip, CD2F1 mice, survival T/C	101 % of control

Field request: T/C | item: "COc1ccc2ccc3c4c(c(=O)[nH]c3c2n1)CCC4"
101 % of control

Now consider "CC(=O)O/N=C/c1ccccn1" .
100 % of control

// provenance: PubChem BioAssay AID330
